This listing pairs compounds with measured TGI.
System: UACC-62 melanoma
Assay: NCI tumour cell line growth inhibition, 48 h
Provide only the numeric value, understood in µM.

test_smiles=C[C@H]1[C@H](C)CC[C@]2(C(=O)NCCNCCN)CC[C@]3(C)C(=CC[C@@H]4[C@@]5(C)CCC(=O)C(C)(C)[C@@H]5CC[C@]43C)[C@H]12 obs_value=2.96

Challenge: What value of TGI has been recorded for this entry: C=CCO/N=C/c1cc(NC(=S)c2ccoc2C)ccc1Cl
Response given: 35.5

* * *

Tested on: SK-MEL-2 melanoma
Test: NCI tumour cell line growth inhibition, 48 h
Quick rule: TGI of at least 20 µM means Criterion met, below that means Criterion not met.

compound=O=P(c1ccccc1)(c1ccccc1)N1O[C@@H](c2ccccc2)C=C[C@H]1c1ccccc1 group="Criterion met"
compound="CC(C(=O)n1nnc2ccccc21)N(c1ccccc1)c1ccccc1 (centres undefined)" group="Criterion met"
compound=Cc1cc2[nH]c3[nH]c(=O)[nH]c(=O)c3c2cc1C group="Criterion met"
compound=Cc1c2c(n(CCc3ccc(Cl)cc3)c1C)NN=C(C#N)S2(=O)=O group="Criterion met"

Moving on to another compound below.
Challenge: Is it the case that C(=N\NC1=NCCCN1)/c1ccc2ccccc2c1 has TGI reaching or exceeding 20 µM?
Response given: Criterion met
